System: Staphylococcus aureus
assay: Antibacterial activity against Staphylococcus aureus MRSA ATCC 43300 (CO-ADD:GP_020); MIC in CAMBH media using NBS plates, by Resazurin F(560/590)
Assay type: functional
test_conditions: Concentration 20 uM, ASSAY_TEST Inhibition of Bacterial Growth, detection method Resazurin, Fluorescence (ex560/em590), MEDIA CAMHB, plate type 384well, CORNING #3640, time 18 hr
Listed here are compounds together with their documented Inhibition.
experimental_endpoint: Inhibition (%)

CNC(=O)c1nn(C)c(=O)[nH]c1=O = 3.46
c1ccc(Sc2ncnc3ccccc23)cc1 = 3.09
CN1CCN(C2=NCCO2)CC1 = 4.85
Oc1ccccc1Nc1ccccn1 = 8.12
COc1ccccc1N=NNc1ccccc1OC = 15.47
O=C(/C=C/c1ccc(Cl)s1)c1ccc(Cl)s1 = 14.77
c1ccc(-n2nnnc2-c2cccc3ccccc23)cc1 = 11.74
O=S(=O)(O)c1ccc2c(c1)C(C(Cl)(Cl)Cl)OC(C(Cl)(Cl)Cl)O2 (configuration not stated) = 10.71
Cc1ccn2c(C(C)O)nnc2c1 (configuration not stated) = 16.33
Cn1cnc([N+](=O)[O-])c1Sc1nc[nH]n1 = 12.64
C#CCSc1nc(-c2ccco2)n[nH]1 = 6.25
CC1=Nc2ccccc2/C1=C\c1c(C)[nH]c2ccccc12 = 7.03
CCOC(=O)c1c(C)nc(C)c(C(=O)OCC)c1-c1ccc(OC)cc1 = 0.94
Cn1c(C(=O)c2ccncc2)cc2ccccc21 = 10.4
Nc1ncnc2c1ncn2C1OC(CO)C(O)C1N (configuration not stated) = -5.5
O=C(O)CCN1c2ccccc2Sc2ccccc21 = 8.2
CCOC(=O)C1CC(C)=C(C)CC1C(=O)O (configuration not stated) = -6.63
Cc1[nH]c(=O)n(C(C)C)c(=O)c1Br = 12.85
Cc1ccc(Nc2nnc(S)s2)cc1F = -5.24
Cc1nc2ccc(Cl)cn2c1[N+](=O)[O-] = 1.58
COc1cccc(-c2nnc(N)o2)c1 = 11.58
Cc1cc(O)c2c(C)ccc(C)c2n1 = 0.21
O=C(O)c1cc(O)ccc1/N=N/c1ccccc1 = 3.85
c1coc(CNc2[nH]cnc3nncc2-3)c1 = 12.65
CSc1nc(N)c(C(=O)Nc2ccc([N+](=O)[O-])cc2)s1 = 3.88
Clc1ccc(-c2nc(-c3cc4cc(Cl)ccc4o3)cs2)cc1 = -3.66
O=C(O)c1ccc2c(c1Sc1ccccc1)C(=O)c1ccccc1C2=O = -2.35
O=C(CN1CCCC1)Nc1nc(-c2ccc(Cl)cc2)cs1 = -2.74
CCC1=C(c2ccc(OC)cc2)CCC(C(=O)O)C1C (configuration not stated) = 20.78
Oc1ccc(Nc2ccc3ccccc3c2)cc1 = -6.35
O=C1COc2c1ccc(O)c2O = 0.46
Cn1c(=O)c2c(nc(OCCc3ccccc3)n2C)n(C)c1=O = 6.63
COc1cc(C(=O)C(=O)c2ccc(O)c(OC)c2)ccc1O = -3.81
O=C(/C=C/C(=O)N1CCc2ccccc2C1)N1CCc2ccccc2C1 = 0.65
CC(C)n1cc(C#N)c(N)n1 = -0.87
C=CCOc1ccnc(-c2ccccc2)n1 = -3.88
Cc1nc(N)nc(Cl)c1CCC1OCCO1 = 7.04
O=C(O)c1cc2ccccc2cc1Nc1ccccc1 = 0.16
Nc1nc(=S)ss1 = 5.79
CCC(CO)Nc1nc2ccc(Cl)cc2c2ccccc12 (configuration not stated) = 32.89
O=C(O)c1cncc(Br)c1 = 13.85
Nc1ccc(SCc2nc3cccc4c3n2CCC4)cc1 = 3.62

====

System: Klebsiella pneumoniae
test_conditions: Concentration 20 uM; ASSAY_TEST Inhibition of Bacterial Growth; detection method Absorption (OD600); MEDIA CAMHB; plate type 384well; NBS; CORNING #3640; time 18 hr
Description: Antibacterial activity against Klebsiella pneumoniae MDR ATCC 70063 (CO-ADD:GN_003); MIC in CAMBH media using NBS plates, by OD(600)
Entries with a potency or affinity are not part of this list.
Listed here are molecules together with their documented Inhibition.
experimental_endpoint: Inhibition (%)

Cc1nc([C@H]2CC[C@H]3[C@@H]4CCC5=CC(=O)CC[C@]5(C)[C@H]4CC[C@]23C)cs1 = 9.22
Cn1c(N)c(/N=N/c2ccc(S(N)(=O)=O)cc2)c(=O)n(C)c1=O = 20.82
CCSc1nc(C)cc(S)n1 = 13.31
c1coc(CNc2[nH]cnc3nncc2-3)c1 = 7.55
Cc1ccc(S(=O)(=O)CCOC(=O)CNC(=O)OCc2ccccc2)cc1 = 12.65
O=C(c1ccc(Cl)nc1)c1cccs1 = 4.42
Oc1ccc(/N=N/c2ccccc2)c(O)c1/N=N/c1ccccc1 = -6.85
O=[N+]([O-])/C=C/c1cc2ccccc2[nH]1 = 7.79
CC(=O)[C@@]1(O)[C@H](C)C[C@H]2[C@@H]3C=C(C)C4=Cc5c(cnn5-c5ccccc5)C[C@]4(C)[C@H]3[C@@H](O)C[C@@]21C = 0.96
CN(/N=N/c1[nH]cnc1C(=O)NN)C1CCCCC1 = 11.56
CCC(C)c1c(N)n(S(=O)(=O)c2ccc(C)cc2)oc1=O (configuration not stated) = 8.85
O=[N+]([O-])c1ccc(-c2ncc(-c3ccc(Br)cc3)o2)cc1 = 5.71

====

System: Acinetobacter baumannii
assay: Antibacterial activity against Acinetobacter baumannii ATCC 19606 (CO-ADD:GN_034); MIC in CAMBH media using NBS plates, by Resazurin F(560/590)
Format: functional
test_conditions: Concentration 20 uM, ASSAY_TEST Inhibition of Bacterial Growth, detection method Resazurin, Fluorescence (ex560/em590), MEDIA CAMHB, plate type 384well, CORNING #3640, time 18 hr
experimental_endpoint: Inhibition (%)

Cn1c(=O)c2nc(COc3ccc(C(C)(C)C)cc3)[nH]c2n(C)c1=O = -14.84
COc1ccc(C(=S)N2CCN(c3cccc(Cl)c3)CC2)cc1 = 2
Cc1cc(=O)n2nc(-c3ccc(C(C)(C)C)cc3)cc2[nH]1 = 0.45
COC(=O)CC1(C(=O)OC)Nc2cc(Cl)c(Cl)cc2S(=O)(=O)N1O (configuration not stated) = 11.98
C=CCNC(S)=NCC = -1.02
O=C(NC1(N2CCOCC2)CC1)c1ccc(Cl)cc1 = -6.57
c1ccc(-c2cn3ccccc3n2)cc1 = -4.96
Cc1cc(NC(=O)c2ccccc2)c(Cl)cc1N = 13.32
Nc1nc(SCc2ccccn2)c2ncn(C3OC(CO)C(O)C3O)c2n1 (configuration not stated) = 2.95
Oc1ccc(-c2nc3ccccc3s2)c(O)c1 = -9.73
c1ccc2[nH]c(CCCCCc3nc4ccccc4[nH]3)nc2c1 = 0.02
CCCc1nc2c(=O)n(C)c(=O)n(C)c2[nH]1 = -13.67
N#Cc1c(N)nc(N)nc1Nc1ccc(Br)cc1 = -8.2
CN(C)c1ccc(/N=N\c2cccc3ccoc23)cc1 = -4.75
Nc1ccc(C(=O)Nc2ccc(Nc3ccncc3)cc2)cc1 = 6.97
C=CCC(CC)C(=O)NC(=O)N1CCCc2ccccc21 (configuration not stated) = 11.89
Oc1ccc(N/C(S)=N/c2ccccc2)cc1 = 11.99
CCCCOC(=O)c1cccnc1 = -6.99
CCOC(=O)CC(=O)NC(C)(C)CCCCC(C)(C)NC(=O)CC(=O)OCC = -12.04
NS(=O)(=O)c1ccc(/N=N/c2ccc(O)[nH]c2=O)cc1 = -21.96
Cc1ccc(Cl)cc1NC(=O)N(C)CCO = 12.85
CSc1cccc(NC(=O)N2CCN(C)CC2)c1 = -10.8
Cc1nc(S)nc(O)c1CCC1OCCO1 = -2.91
Cc1ccc(NC(=O)Nc2cccnc2)cc1NC(=O)Nc1cccnc1 = 3.3
CC1=CC(=C2C=CC(=O)C=C2)C=C(C)N1C = -6.52
Cc1nnc2nc(-c3ccccc3)nc(-c3ccccc3)n12 = 8.22
COc1ccc(C(C)=O)cc1CO/N=C1\CSCc2ccccc21 = 9.55

====

Tested on: Acinetobacter baumannii
assay: Antibacterial activity against Acinetobacter baumannii ATCC 19606 (CO-ADD:GN_034); MIC in CAMBH media using NBS plates, by Resazurin F(560/590)
Assay type: functional
test_conditions: Concentration 20 uM, ASSAY_TEST Inhibition of Bacterial Growth, detection method Resazurin, Fluorescence (ex560/em590), MEDIA CAMHB, plate type 384well, CORNING #3640, time 18 hr
experimental_endpoint: Inhibition (%)

O=C(CN1CCCC1)Nc1nc(-c2ccc(Cl)cc2)cs1 = 10.5
CC(O)(c1ccccc1)C(c1ccccc1)C1CCCCN1 (stereo not given) = 13.67
O=C(/C=C\c1ccc2ccccc2n1)c1cc(Cl)ccc1O = -4.27
O=C1C2C3C=CC(CC3)C2S(=O)(=O)C2C3C=CC(CC3)C12 (stereo not given) = 12.35
CN(C)c1ccc(/C=N/NC(=O)c2cnc3ccccc3c2)cc1 = 9.63
Cc1ccc(S(=O)(=O)CCOC(=O)CNC(=O)OCc2ccccc2)cc1 = 8.19
O=C(O)CCC(=O)OCCN(Cc1ccc(Oc2ccc([N+](=O)[O-])cc2)cc1)C(=O)C(Cl)Cl = 0.5
O=C(Nc1ccccc1-c1ccccc1)C(=O)Nc1ccccc1-c1ccccc1 = -8.51
NS(=O)(=O)c1ccc(Cl)cc1[N+](=O)[O-] = -3.88
CC(=O)/C=C(\C)Nc1ccccc1O = -10.28
CCCNC(=O)c1ccccc1C(=O)NC1(C(=O)NCCC)CCCC1 = 6.45
CCOC(=O)Nc1c(Cl)n(C)c(=O)n(C)c1=O = 9.75
O=c1cc2oc3cc(O)c(O)cc3c(-c3ccccc3O)c-2cc1O = -19.46
Cc1cc(N2CCN(C)CC2)n2nc(-c3ccc(Cl)cc3)nc2n1 = 8.53
O=C1c2ccccc2C(=O)c2c1cccc2-n1nnc2ccccc21 = -5.95
COCCn1c2nc(=O)n(-c3ccccc3)c(=O)c-2nc2ccccc21 = -2.61
COc1c(/C=N/NC(N)=O)c(OC)c(OC)c2c1CCO2 = 0.63
CC1(C)CC(=O)C(CC(=O)c2ccccc2)=C(NNC(=N)N)C1 = 8.18
Oc1ccc(Cl)nn1 = -4.23
CCOC(=O)c1c(N)ssc1=S = 2.94
CCOC(=O)N1C/C(=C\c2ccccc2)C(=O)/C(=C/c2ccccc2)C1 = 7.26
Sc1nccn1-c1c(Cl)cccc1Cl = 12.03
c1ccc(Sc2ncnc3ccccc23)cc1 = -14.3
C=C(C)CN1C(=O)C(C)S/C1=N/N=C1/SCC(=O)N1C (stereo not given) = 8.16
COC(=O)Nc1csc2c1NC(=O)CCCC2 = -9.14
COCC(O)Cn1ccnc1[N+](=O)[O-] (stereo not given) = 6.49
CSc1nc(O)cc(Cl)n1 = -4.84
CC(C)(C)N=C(S)NC(C)(C)C = -9.16
O=C(Nc1ccccc1)Nc1ccccn1 = -11.25
Cc1ccc(C2C=CC(C#N)=CN2Cc2ccccc2)cc1 (stereo not given) = -15.76
O[C@@H](c1cc(-c2ccc(C(F)(F)F)cc2)nc(C(F)(F)F)c1)[C@H]1CCCCN1 = 7.22
C=CCc1ccccc1OCC(=O)O = -9.95
Nc1ccn(C2OC(CCl)C(O)C2O)c(=O)n1 (stereo not given) = -8.52
COc1ccc2[nH]c(-c3ccccc3)cc2c1 = 3.58
COc1cc(/N=N/c2ccccc2C(=O)O)ccc1O = -0.55

// data source = ChEMBL document CHEMBL4296182
